From: patent US20200017592A1

Listed here are binders together with their documented koff.
- Tested Target: T1, human IL-36R extracellular domain expressed with a C-terminal myc-myc-hexahistidine tag (hIL-36R-MMH) (human, UniProt Q9HB29 20-337)
- T1 construct: also called Human IL-36R-MMH; REGN2105
- T1 sequence (Q9HB29 other isoform, or with tags, fused parts or gaps limits assumed): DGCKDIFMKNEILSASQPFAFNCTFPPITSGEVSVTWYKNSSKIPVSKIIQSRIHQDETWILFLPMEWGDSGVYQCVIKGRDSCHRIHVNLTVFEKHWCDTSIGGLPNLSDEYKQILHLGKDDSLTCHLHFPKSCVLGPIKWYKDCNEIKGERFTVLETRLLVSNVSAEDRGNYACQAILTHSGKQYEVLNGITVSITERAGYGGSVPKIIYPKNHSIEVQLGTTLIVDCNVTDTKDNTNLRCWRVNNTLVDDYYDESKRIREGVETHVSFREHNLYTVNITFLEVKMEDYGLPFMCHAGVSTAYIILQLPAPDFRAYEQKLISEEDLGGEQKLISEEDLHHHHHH
- Method Summary: SPR Biacore T200, mAb captured on anti-hFc, 37C, PBS-T pH 7.4 running buffer

Examples from the recorded data:
[[record]]
binder = "H4H14699P2 (antibody, human IgG4 S228P, kappa, V domains shown, Fully human anti-IL-36R antibody) VH: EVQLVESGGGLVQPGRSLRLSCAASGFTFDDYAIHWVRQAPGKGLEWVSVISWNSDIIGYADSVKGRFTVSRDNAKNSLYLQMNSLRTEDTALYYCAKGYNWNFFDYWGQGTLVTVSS VL: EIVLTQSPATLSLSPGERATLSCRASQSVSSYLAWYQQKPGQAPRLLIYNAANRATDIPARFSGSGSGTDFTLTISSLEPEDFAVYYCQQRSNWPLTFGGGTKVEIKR"
result = "0.00415 s⁻¹"

[[record]]
binder = "H4H14700P2 (antibody, human IgG4 S228P, kappa, V domains shown, Fully human anti-IL-36R antibody) VH: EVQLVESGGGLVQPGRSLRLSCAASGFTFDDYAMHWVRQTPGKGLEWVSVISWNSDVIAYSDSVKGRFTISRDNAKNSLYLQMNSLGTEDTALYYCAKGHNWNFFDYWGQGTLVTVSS VL: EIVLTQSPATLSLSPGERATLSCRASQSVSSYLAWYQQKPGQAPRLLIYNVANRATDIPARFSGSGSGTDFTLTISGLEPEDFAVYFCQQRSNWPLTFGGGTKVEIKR"
result = "0.00169 s⁻¹"


Then there is this binder:
Just so you know, measured koff for H4H14708P2 (antibody, human IgG4 S228P, kappa, V domains shown, Fully human anti-IL-36R antibody) VH: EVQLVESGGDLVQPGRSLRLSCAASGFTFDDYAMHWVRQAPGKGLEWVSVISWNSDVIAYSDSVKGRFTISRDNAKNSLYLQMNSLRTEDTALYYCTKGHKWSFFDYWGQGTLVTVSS VL: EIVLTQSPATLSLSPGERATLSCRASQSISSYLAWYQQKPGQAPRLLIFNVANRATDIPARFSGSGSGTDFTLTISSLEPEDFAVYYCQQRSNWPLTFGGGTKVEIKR came out at 0.00177 s⁻¹
